Reference for the values: patent US4876243A

biological target: V2-vasopressin receptors (Sus scrofa); construct: in the medullary tissue of hog kidneys; from tissue; host or cells: hog kidney medullary tissue; test: receptor binding ability measured by inhibition of 3H-LVP binding; conditions: read-out: Pig V2 KB
Sequence (P32307 whole entry): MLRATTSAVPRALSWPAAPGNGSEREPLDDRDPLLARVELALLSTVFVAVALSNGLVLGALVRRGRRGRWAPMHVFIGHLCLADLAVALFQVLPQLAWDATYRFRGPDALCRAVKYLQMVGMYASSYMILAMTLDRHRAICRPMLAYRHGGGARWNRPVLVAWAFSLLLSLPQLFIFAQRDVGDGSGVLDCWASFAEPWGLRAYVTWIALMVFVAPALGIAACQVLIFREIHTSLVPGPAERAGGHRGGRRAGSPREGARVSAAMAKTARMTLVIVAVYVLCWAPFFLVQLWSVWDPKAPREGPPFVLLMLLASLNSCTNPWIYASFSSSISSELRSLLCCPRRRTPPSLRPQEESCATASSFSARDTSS
*1 amine or outer side, *2 acyl side, *3 side chain or, on linkers, in order; H or OH if unused. Where a SMILES comes first, the peptide text is derived from it. Bridges are numbered along the chain shown (N, C = ends). [ ]: non-standard residue; d: D form. X1 = O=C(CC1(S[*:2])CCCCC1)[*:1]; αMeV = CC(C)[C@](C)(N)C(=O)O; Aib = CC(C)(N)C(=O)O
This section presents compounds with their documented Kb values.
MEASURED_ATTRIBUTE: Kb (nM)

1. CCOc1ccc(C[C@H]2NC(=O)CC3(CCCCC3)SSC[C@@H](C(=O)NC(C)(C)C(=O)N[C@@H](CCCNC(=N)N)C(N)=O)NC(=O)[C@H](CC(N)=O)NC(=O)[C@H](C(C)C)NC(=O)[C@H](Cc3ccccc3)NC2=O)cc1 [E] ([dY](Et)FVNC[Aib]R-NH2; linker N-5 via X1) ... 15
2. CCOc1ccc(C[C@H]2NC(=O)CC3(CCCCC3)SSC[C@@H](C(=O)NC(C)(C)C(=O)N[C@@H](CCCNC(=N)N)C(=O)NCC(N)=O)NC(=O)[C@H](CC(N)=O)NC(=O)[C@H](C(C)C)NC(=O)[C@H](Cc3ccccc3)NC2=O)cc1 [A] ([dY](Et)FVNC[Aib]RG-NH2; linker N-5 via X1) ... 9.2
3. CCOc1ccc(C[C@H]2NC(=O)CC3(CCCCC3)SSC[C@@H](C(=O)N3CCC[C@H]3C(=O)N[C@@H](CCCNC(=N)N)C(=O)NCC(N)=O)NC(=O)[C@H](CC(N)=O)NC(=O)[C@](C)(C(C)C)NC(=O)[C@H](Cc3ccccc3)NC2=O)cc1 [C] ([dY](Et)F[αMeV]NCPRG-NH2; linker N-5 via X1) ... 11
4. CCOc1ccc(C[C@H]2NC(=O)CC3(CCCCC3)SSC[C@@H](C(=O)N3CCC[C@H]3C(=O)N[C@@H](CCCNC(=N)N)C(N)=O)NC(=O)[C@H](CC(N)=O)NC(=O)C(C)(C)NC(=O)[C@H](Cc3ccccc3)NC2=O)cc1 [B] ([dY](Et)F[Aib]NCPR-NH2; linker N-5 via X1) ... 580
